Field: IC50. Provide a value for each of the compounds that follow.
System: K562
experiment: Cytotoxicity against human K562 cells after 72 hrs by MTT assay
Type: functional, cell-based
condition_summary: K562, 72 h
Please give a number only; it is taken to be in nM.

Given item "O=C(/C=C/c1ccc(F)cc1)O[C@@H]1[C@H]2OC(=O)C[C@H]2O[C@@H]1[C@H](O)c1ccccc1" , the value recorded as its IC50 is 10200

Given item O=C(/C=C/c1ccc([N+](=O)[O-])cc1)OC1C2OC(=O)CC2O[C@@H]1Cc1ccccc1 (single isomer, unassigned) , the value recorded as its IC50 is 980

Given item COc1ccc(/C=C/C(=O)OC2C3OC(=O)CC3O[C@@H]2Cc2ccccc2)cc1 (single isomer, unassigned) , the value recorded as its IC50 is 1020

Given item "O=C(/C=C/c1ccc([N+](=O)[O-])cc1)O[C@@H]1[C@H]2OC(=O)C[C@H]2O[C@@H]1[C@@H](O)c1ccccc1" , the value recorded as its IC50 is 1120

Given item "COc1ccc(/C=C/C(=O)O[C@@H](c2ccccc2)[C@H]2O[C@@H]3CC(=O)O[C@@H]3[C@H]2O)cc1" , the value recorded as its IC50 is 11500

Given item "O=C(/C=C/c1ccc(F)cc1)O[C@H](c1ccccc1)[C@H]1O[C@@H]2CC(=O)O[C@@H]2[C@H]1O" , the value recorded as its IC50 is 4580

Given item "O=C(/C=C/c1ccccc1)O[C@@H](c1ccccc1)[C@H]1O[C@@H]2CC(=O)O[C@@H]2[C@H]1O" , the value recorded as its IC50 is 2010

# credit: ChEMBL document CHEMBL3352105
